Tested on: PANC-1
Test: Induction of apoptosis in human PANC1 cells assessed as accumulation at sub-G0/G1 phase at 10 uM after 72 hrs by propidium iodide staining based flow cytometry (reference value: 1.6 to 3.2%)
Type: functional
For each record, check the reported Activity: if it is below 10% write condition met, else write condition not met.

The following compounds have reported results that may help.
INSERT INTO measurements (molecular_string, target_of_assay, class_assignment) VALUES
  ('Cl.NCC(=O)N1CCC[C@H]1COCCCCCCCCC/C=C/c1ccc(-c2ccccc2)cc1', 'PANC-1', 'condition not met'),
  ('CCCCCCCCCCCCCCCCOC[C@H]1NC[C@H](O)[C@@H]1O', 'PANC-1', 'condition met'),
  ('CCCCCCCC/C=C\CCCCCCCCOCC[C@H]1NC[C@H](O)[C@@H]1O', 'PANC-1', 'condition met'),
  ('CCCCCCCC/C=C\CCCCCCCCOC[C@@H]1CCCN1.Cl', 'PANC-1', 'condition not met'),
  ('Cl.O[C@H]1CN[C@H](COCCCCCCCCC/C=C/c2ccc(-c3ccccc3)cc2)C1', 'PANC-1', 'condition not met'),
  ('Cl.O[C@H]1CN[C@H](COCCCCCC/C=C/c2ccc(-c3ccccc3)cc2)C1', 'PANC-1', 'condition not met'),
  ('CCCCCCCC/C=C/CCCCCCCCOC[C@@H]1CCCN1.Cl', 'PANC-1', 'condition met'),
  ('CCCCCCCC/C=C\CCCCCCCCOC[C@@H]1CCCN1C(=O)[C@@H]1CCCN1.Cl', 'PANC-1', 'condition not met'),
  ('C(=C\c1ccc(-c2ccccc2)cc1)/CCCCCCCCOC[C@@H]1CCCN1.Cl', 'PANC-1', 'condition not met');

Now let's try a different one.
I wonder whether `CCCCCCCC/C=C\CCCCCCCCOC[C@@H]1CCCN1C(=O)CN.Cl` has Activity below 10%. Can you tell?
condition not met

---

System: BXPC-3
Assay: Induction of apoptosis in human BxPC3 cells assessed as accumulation at sub-G0/G1 phase at 10 uM after 48 hrs by propidium iodide staining based flow cytometry (reference value: 2.8%)
Assay type: functional
Given measured Activity, output TRUE if it is greater than or equal to 10% and FALSE if not.

The following compounds have reported results that may help.
INSERT INTO results (compound, class_assignment) VALUES
  ('CCCCCC/C=C\CCCCCCCCOC[C@H]1NC[C@H](O)[C@@H]1O', 'TRUE'),
  ('CCCCCC/C=C/CCCCCCCCOC[C@H]1NC[C@H](O)[C@@H]1O', 'FALSE'),
  ('Cl.O[C@H]1CN[C@H](COCCCCCCCCC/C=C/c2ccc(-c3ccccc3)cc2)C1', 'TRUE'),
  ('CCCCCCCC/C=C\CCCCCCCCOCC[C@H]1NC[C@H](O)[C@@H]1O', 'TRUE'),
  ('CCCCCCCCCCCCCCCCCCOCC(COP(=O)([O-])OCC[N+](C)(C)C)OC (configuration not stated)', 'TRUE');

Confirm if Activity reported for the compound `CCCCCCCCCCCCCCCCOC[C@H]1NC[C@H](O)[C@@H]1O` is 10% or above.
FALSE

Next compound: `O[C@H]1[C@@H](O)CN[C@@H]1COCCCCCCCC/C=C/c1ccc(Oc2ccccc2)cc1`
FALSE
